# assay-details: Pharmacokinetic (PK) studies, monkey oral PK
# Type: in vivo, Cynomolgus monkeys
# condition-parameters: Cynomolgus monkey, single oral dose 2 mg/kg (CE-1: 1 mg/kg), plasma; read-out: AUC0-24 (Arbitrary units)
# Method: Examples 54 and 253 were tested along with comparative examples CE-1 and CE-2. […] LC-MS/MS assays were utilized to quantify the concentration of the test articles in plasma as follows. […] Pharmacokinetics parameters, including area under the curve (AUC0-24), maximum plasma concentration (Cmax), time to reach maximum plasma concentration (Tma), oral bioavailability (F %), etc., were calculated using Dotmatics software in non-compartmental model.
measured-property: AUC(0-t) (µM·h)

>>> result_number("O=C(O)c1cc(F)c2nc(Cc3cc(F)c(-c4cccc(OCc5ncc(C(F)(F)F)s5)n4)cc3F)n(C[C@@H]3CCO3)c2c1 [Example 253]")
6.39
>>> result_number("O=C(O)c1ccc2nc(Cc3cc(F)c(-c4cccc(OCc5ncc(C(F)(F)F)s5)n4)cc3F)n(C[C@@H]3CCO3)c2c1 [Example 54]")
14.2

---

# assay-details: Pharmacokinetic (PK) studies, monkey oral PK
# Assay type: in vivo, Cynomolgus monkeys
# condition-parameters: Cynomolgus monkey, single oral dose 2 mg/kg (CE-1: 1 mg/kg), plasma
measured-property: Tmax (h)

>>> result_number("O=C(O)c1ccc2nc(Cc3cc(F)c(-c4cccc(OCc5ncc(C(F)(F)F)s5)n4)cc3F)n(C[C@@H]3CCO3)c2c1")
4.7
>>> result_number("O=C(O)c1cc(F)c2nc(Cc3cc(F)c(-c4cccc(OCc5ncc(C(F)(F)F)s5)n4)cc3F)n(C[C@@H]3CCO3)c2c1")
5.3

---

# target: GLP-1R (Homo sapiens, UniProt P43220)
# Sequence (P43220 24-463): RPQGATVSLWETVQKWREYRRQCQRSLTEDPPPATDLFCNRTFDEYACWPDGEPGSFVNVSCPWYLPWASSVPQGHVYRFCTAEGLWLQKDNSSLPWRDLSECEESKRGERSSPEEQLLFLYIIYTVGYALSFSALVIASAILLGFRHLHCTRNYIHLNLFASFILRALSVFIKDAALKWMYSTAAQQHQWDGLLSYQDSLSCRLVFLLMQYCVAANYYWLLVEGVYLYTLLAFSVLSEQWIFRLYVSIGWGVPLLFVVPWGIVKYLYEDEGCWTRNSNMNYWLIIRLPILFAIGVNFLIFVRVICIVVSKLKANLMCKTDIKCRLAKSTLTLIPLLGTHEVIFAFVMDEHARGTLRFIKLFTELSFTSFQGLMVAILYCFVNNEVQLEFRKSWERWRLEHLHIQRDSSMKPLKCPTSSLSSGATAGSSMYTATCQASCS
# assay-details: GLP-1R activation cAMP assay (Assay 1 or Assay 2)
# condition-parameters: cAMP increase in CHO cells stably expressing GLP-1R; compounds run on one of the two cAMP assays
measured-property: EC50 (nM)

>>> result_number("O=C(O)c1cc(F)c2nc(Cc3c(F)cc(-c4ccc(F)c(OCc5ncc(C(F)(F)F)s5)n4)c(F)c3F)n(C[C@@H]3CCO3)c2c1")
0.02
>>> result_number("O=C(O)c1ccc2nc(Cc3cc(F)c(-c4cccc(OCc5nccn5C(F)F)n4)cc3F)n(C[C@@H]3CCO3)c2c1")
23.2
>>> result_number("O=C(O)c1ccc2nc(Cc3cc(F)c(-c4cccc(OCc5ncc(-c6cnn(C7COC7)c6)s5)n4)cc3F)n(C[C@@H]3CCO3)c2c1")
0.19
>>> result_number("CC1(C#Cc2cnc(COc3cccc(-c4cc(F)c(Cc5nc6ccc(C(=O)O)cc6n5C[C@@H]5CCO5)cc4F)n3)s2)CC1")
0.226
>>> result_number("COCCn1c(Cc2cc(F)c(-c3cccc(OCc4ccc(-c5cnn(C6CCNCC6)c5)nc4)n3)cc2F)nc2ccc(C(=O)O)cc21")
17.9

---

# target: GLP-1R (Homo sapiens, UniProt P43220)
# assay-details: GLP-1R activation cAMP assay (Assay 1 or Assay 2)
# condition-parameters: cAMP increase in CHO cells stably expressing GLP-1R; compounds run on one of the two cAMP assays
measured-property: log10 of EC50 (log10 of the value in nM)

>>> result_number("CC1(C#Cc2nnc(COc3cccc(-c4cc(F)c(Cc5nc6ccc(C(=O)O)cc6n5C[C@@H]5CCO5)cc4F)n3)s2)CC1 [Example 321]")
-0.61
>>> result_number("Cn1cc(Cl)c(COc2cccc(-c3cc(F)c(Cc4nc5ccc(C(=O)O)cc5n4C[C@@H]4CCO4)cc3F)n2)n1 [Example 78]")
0.97
>>> result_number("Cn1cncc1C#Cc1ccc(COc2cccc(-c3cc(F)c(Cc4nc5c(F)cc(C(=O)O)cc5n4C[C@@H]4CCO4)cc3F)n2)c(F)c1 [Example 395]")
-0.71
>>> result_number("O=C(O)c1ccc2nc(Cc3cc(F)c(-c4cccc(OCc5ccc(C#Cc6cncnc6)cc5F)n4)cc3F)n(C[C@@H]3CCO3)c2c1 [Example 138]")
-0.55
>>> result_number("Cn1ncc(C#Cc2ccc(COc3cccc(-c4cc(F)c(Cc5nc6ccc(C(=O)O)cc6n5C[C@@H]5CCO5)cc4F)n3)c(F)c2)c1C(N)=O [Example 359]")
-1.29
>>> result_number("COc1nnc(COc2cccc(-c3cc(F)c(Cc4nc5c(F)cc(C(=O)O)cc5n4C[C@@H]4CCO4)cc3F)n2)s1 [Example 351]")
-0.74
>>> result_number("Cc1cc(Cc2nc3ccc(C(=O)O)cc3n2[C@@H]2COCC2(C)C)c(F)cc1-c1ccc(F)c(OCc2ncc(C(C)(F)F)s2)n1 [Example 337]")
0.08
>>> result_number("Cn1cc(-c2cnc(COc3cccc(-c4cc(F)c(Cc5nc6ccc(C(=O)O)cc6n5[C@H]5COCC5(C)C)cc4F)n3)s2)cn1 [Example 97]")
-0.96
>>> result_number("O=C(O)c1ccc2nc(Cc3cc(F)c(-c4cccc(OCc5ncc(-c6cncs6)s5)n4)cc3F)n(C[C@@H]3CCO3)c2c1 [Example 101]")
-0.85
>>> result_number("Cn1nncc1C#Cc1ccc(COc2cccc(-c3cc(F)c(Cc4nc5ccc(C(=O)O)cc5n4C[C@@H]4CCO4)cc3F)n2)c(F)n1 [Example 278]")
-0.21
>>> result_number("CNC(=O)c1cc(Cl)c(COc2cccc(-c3cc(F)c(Cc4nc5ccc(C(=O)O)cc5n4C[C@@H]4CCO4)cc3F)n2)cn1 [Example 46]")
-0.85
>>> result_number("CC(C)(C)OC(=O)N[C@H]1C[C@@H](n2cc(-c3ccc(COc4cccc(-c5cc(F)c(Cc6nc7ccc(C(=O)O)cc7n6C[C@@H]6CCO6)cc5F)n4)c(F)c3)nn2)C1 [Example 219]")
-0.07

---

# target: GLP-1R (Homo sapiens)
# Construct: host or cells: CHO cells
# assay-details: GLP-1R activation cAMP assay (Assay 1 or Assay 2)
# Assay type: cell-based
# condition-parameters: cAMP increase in CHO cells stably expressing GLP-1R; compounds run on one of the two cAMP assays
pEC50: −log10 of the molar value.
measured-property: pEC50

>>> result_number("COCCn1c(Cc2cc(F)c(-c3cccc(OCc4ccc(-c5cnn(CCN6CCOCC6)c5)cc4F)n3)cc2F)nc2ccc(C(=O)O)cc21")
8.46
>>> result_number("O=C(O)c1ccc2nc(Cc3cc(F)c(-c4cccc(OCc5ncc(OCC(F)(F)F)s5)n4)cc3F)n(C[C@@H]3CCO3)c2c1")
9.14
>>> result_number("O=C(O)c1ccc2nc(Cc3cc(F)c(-c4cccc(OCc5ccn(C6CC6)n5)n4)cc3F)n(C[C@@H]3CCO3)c2c1")
8.51
>>> result_number("O=C(O)c1ccc2nc(Cc3cc(F)c(-c4cccc(OCc5ccc(C#Cc6cncnc6)cc5)n4)cc3F)n(C[C@@H]3CCO3)c2c1")
9.44
>>> result_number("Cc1cn(C)nc1COc1cccc(-c2cc(F)c(Cc3nc4ccc(C(=O)O)cc4n3C[C@@H]3CCO3)cc2F)n1")
8.20
>>> result_number("COCCn1c(Cc2cc(F)c(-c3cccc(OCc4nnc(OC)s4)n3)cc2Cl)nc2c(F)cc(C(=O)O)cc21")
9.12
>>> result_number("Cn1nncc1C#Cc1ccc(COc2cccc(-c3cc(F)c(Cc4nc5ccc(C(=O)O)cc5n4C4COCC4(C)C)cc3F)n2)c(F)c1 (centres unmarked)")
9.02
>>> result_number("Cn1cc(C#Cc2ccc(COc3cccc(-c4cc(F)c(Cc5nc6c(F)cc(C(=O)O)cc6n5C[C@@H]5CCO5)cc4F)n3)c(F)c2)cn1")
10.00

---

# target: UniProt:P43220
# assay-details: GLP-1R activation cAMP assay (Assay 1 or Assay 2)
# condition-parameters: cAMP increase in CHO cells stably expressing GLP-1R; compounds run on one of the two cAMP assays
pEC50: −log10 of the molar value.
measured-property: pEC50

>>> result_number("O=C(O)c1ccc2nc(Cc3cc(F)c(-c4cccc(OCc5cnc(C(=O)NCC(F)(F)F)cc5Cl)n4)cc3F)n(C[C@@H]3CCO3)c2c1 [Example 191]")
9.16
>>> result_number("O=C(O)c1ccc2nc(Cc3cc(F)c(-c4cccc(OCc5nnc(Cl)s5)n4)cc3F)n(C[C@@H]3CCO3)c2c1 [Example 49]")
9.19
>>> result_number("N#Cc1ccc2nc(COc3cccc(-c4cc(F)c(Cc5nc6ccc(C(=O)O)cc6n5C[C@@H]5CCO5)cc4F)n3)cn2c1 [Example 31]")
8.88
>>> result_number("O=C(O)c1ccc2nc(Cc3cc(F)c(-c4cccc(OCc5cc(C(F)(F)F)no5)n4)cc3F)n(C[C@@H]3CCO3)c2c1 [Example 60]")
8.84
>>> result_number("Cn1nc(COc2cccc(-c3cc(F)c(Cc4nc5ccc(C(=O)O)cc5n4C[C@@H]4CCO4)cc3F)n2)cc1C#N [Example 207]")
9.34
>>> result_number("Cc1nc(COc2cccc(-c3cc(F)c(Cc4nc5ccc(C(=O)O)cc5n4C[C@H]4CCO4)cc3F)n2)sc1-c1cnn(C)c1 [Example 104]")
10.15
>>> result_number("Cn1cc(C#Cc2ccc(COc3cccc(-c4cc(F)c(Cc5nc6ccc(C(=O)O)cc6n5C[C@@H]5CCO5)cc4F)n3)cc2)cn1 [Example 306]")
9.21
>>> result_number("O=C(O)c1ccc2nc(Cc3cc(F)c(-c4cccc(OCc5ccn(CC(F)(F)F)n5)n4)cc3F)n(C[C@@H]3CCO3)c2c1 [Example 66]")
8.18
>>> result_number("Cc1nnc(COc2nc(-c3cc(F)c(Cc4nc5c(F)cc(C(=O)O)cc5n4C[C@@H]4CCO4)cc3F)ccc2F)s1 [Example 297]")
9.29
>>> result_number("O=C(O)c1ccc2nc(Cc3cc(F)c(-c4cccc(OCc5nccs5)n4)cc3F)n(C[C@@H]3CCO3)c2c1 [Example 11]")
9.22
>>> result_number("Cn1ccc(C#Cc2ccc(COc3cccc(-c4cc(F)c(Cc5nc6ccc(C(=O)O)cc6n5C[C@@H]5CCO5)cc4F)n3)c(F)c2)n1 [Example 134]")
9.22
>>> result_number("O=C(O)c1ccc2nc(Cc3cc(F)c(-c4cccc(OCc5cc(C(F)(F)F)ns5)n4)cc3F)n(C[C@@H]3CCO3)c2c1 [Example 81]")
9.09
>>> result_number("O=C(O)c1ccc2nc(Cc3cc(F)c(-c4cccc(OCc5ccc(C#Cc6cc[nH]c(=O)c6)cc5F)n4)cc3F)n(C[C@@H]3CCO3)c2c1 [Example 356]")
10.00
>>> result_number("COc1nnc(COc2cccc(-c3cc(F)c(Cc4nc5c(F)cc(C(=O)O)cc5n4CC4(C(F)F)CC4)cc3F)n2)s1 [Example 275]")
9.43
>>> result_number("CNC(=O)c1cc(Cl)c(COc2cccc(-c3cc(Cl)c(Cc4nc5c(F)cc(C(=O)O)cc5n4CCOC)cc3F)n2)cn1 [Example 386]")
9.92
>>> result_number("O=C(O)c1ccc2nc(Cc3cc(F)c(-c4cccc(OCc5cc(C(F)(F)F)cs5)n4)cc3F)n(C[C@@H]3CCO3)c2c1 [Example 55]")
9.36
>>> result_number("Cc1cc(Cc2nc3c(F)cc(C(=O)O)cc3n2C[C@@H]2CCO2)c(F)cc1-c1cccc(OCc2ccc(C#Cc3cnn(C)c3)cc2F)n1 [Example 153]")
9.44
